- ASSAY SUMMARY: Selectivity ratio of IC50 for human RWPE1 cells to IC50 for human LNCAP cells
- Assay type: ADME, cell-based
- STATED CONDITIONS: RWPE1 cells and LNCaP cells, read-out: Ratio IC50

SMI | selectivity ratio
Cn1cc(/C=C2/C(=O)Nc3ccccc32)c2cc(Nc3nccc(-c4ccc(F)cc4)n3)ccc21 | 10.3

Data provenance: ChEMBL document CHEMBL3808354
